I'd be grateful if you could share measured IC50 for these entries.
# value in µM; strip the unit string

Record CC(C(=O)Nc1cc(-c2[nH]c3c(c2Nc2ccccc2)C(=O)N(C)CC3)ccn1)c1ccc(Cl)cc1 (single isomer, unassigned; (+)) [Example 81] / UniProt:P48730, IC50 recorded as 0.00847

Record CN1CCc2[nH]c(-c3ccnc(NC(=O)Cc4ccncc4)c3)c(Nc3ccccc3)c2C1=O / UniProt:P48730, IC50 recorded as 0.00551

Record CN1CCc2[nH]c(-c3ccnc(NC(=O)Cc4ccc(N(C)C)cc4)c3)c(Nc3ccccc3)c2C1=O / UniProt:P48730, IC50 recorded as 0.0085

Record Cc1ccccc1Nc1c(-c2ccnc(NC(=O)C(CC(F)F)c3ccc(F)cc3)c2)[nH]c2c1C(=O)NC1(CCC1)C2 (single isomer, unassigned; enantiomer 1) [Example 144] / UniProt:P48730, IC50 recorded as 0.082

Record CC(C(=O)Nc1cc(-c2[nH]c3c(c2Nc2ccccc2)C(=O)N(C)C(C)C3)ccn1)c1ccc(F)cc1 (single isomer, unassigned; (-)) [Example 93] / UniProt:P48730, IC50 recorded as 0.0473

Record CC(C(=O)Nc1cc(-c2[nH]c3c(c2Nc2ccccc2)C(=O)N(C)C(C)C3)ccn1)c1ccc(F)cc1 (single isomer, unassigned; (+)) [Example 91] / UniProt:P48730, IC50 recorded as 0.00883

Record CCN1CCc2[nH]c(-c3ccnc(NC(=O)C(C)c4ccc(F)cc4)c3)c(Nc3ccccc3)c2C1=O (stereo not drawn) [Example 21] / UniProt:P48730, IC50 recorded as 0.0215

Record CC(C(=O)Nc1cc(-c2[nH]c3c(c2Nc2ccccc2)C(=O)N(C)C(C)C3)ccn1)c1ccc(F)cc1 (single isomer, unassigned; (-)) [Example 94] / UniProt:P48730, IC50 recorded as 0.00702

Record O=C(Cc1ccc(F)cc1)Nc1cc(-c2[nH]c3c(c2Nc2ccccc2Cl)C(=O)NCC3)ccn1 / UniProt:P48730, IC50 recorded as 0.00706

Record CC1Cc2[nH]c(-c3ccnc(NC(=O)C(CC(F)F)c4ccc(F)cc4)c3)c(Nc3ccccc3F)c2C(=O)N1C (single isomer, unassigned; (-)) [Example 106] / UniProt:P48730, IC50 recorded as 0.0223

Record CC1(C)Cc2[nH]c(-c3ccnc(NC(=O)C(CC(F)F)c4ccc(F)cc4)c3)c(Nc3ccccc3)c2C(=O)N1 (single isomer, unassigned) [Example 50] / UniProt:P48730, IC50 recorded as 0.0682

Record O=C1NC2(CCC2)Cc2[nH]c(-c3ccnc(NC(=O)C(CC(F)F)c4ccc(F)cc4)c3)c(Nc3cccc(F)c3Cl)c21 (single isomer, unassigned; enantiomer 1) [Example 124] / UniProt:P48730, IC50 recorded as 0.0587

* * *

I'd be grateful if you could share measured pIC50 for these entries.
pIC50 (log units): -log10 of the concentration in mol/L.

Record C[C@@H](C(=O)Nc1cc(-c2[nH]c3c(c2Nc2ccccc2)C(=O)N(C)CC3)ccn1)c1ccc(F)cc1 (single isomer, unassigned) / human CSNK1D (Homo sapiens (Human)), pIC50 recorded as 7.30

Record CCC(C(=O)Nc1cc(-c2[nH]c3c(c2Nc2ccccc2)C(=O)N(C)CC3)ccn1)c1ccc(F)cc1 (racemic) [Example 75] / human CSNK1D (Homo sapiens (Human)), pIC50 recorded as 8.08

Record O=C(Cc1ccc(F)cc1)Nc1cc(-c2[nH]c3c(c2Nc2ccccc2)C(=O)NC2(CCC2)C3)ccn1 / human CSNK1D (Homo sapiens (Human)), pIC50 recorded as 8.51

Record CN1CCc2[nH]c(-c3ccnc(NC(=O)Cc4cccnc4)c3)c(Nc3ccccc3)c2C1=O / human CSNK1D (Homo sapiens (Human)), pIC50 recorded as 8.42

Record C[C@H](C(=O)Nc1cc(-c2[nH]c3c(c2Nc2ccccc2)C(=O)N(C)CC3)ccn1)c1ccc(F)cc1 (single isomer, unassigned) / human CSNK1D (Homo sapiens (Human)), pIC50 recorded as 7.92

Record CC(C(=O)Nc1cc(-c2[nH]c3c(c2Nc2ccccc2Cl)C(=O)NCC3)ccn1)c1ccc(F)cc1 (single isomer, unassigned) [Example 15] / human CSNK1D (Homo sapiens (Human)), pIC50 recorded as 7.41
